Each recorded value in this set is attributed to patent US12351559B2.

- experimental target: Kv7.2/7.3 (Homo sapiens, UniProt O43525+O43526)
- Construct: host or cells: HEK cells, tetracycline-inducible expression
- assay explanation: Kv7.2/7.3 activation assay, QPatch planar patch-clamp, single concentration screen
- Format: cell-based
- Set-up: key: <1.2-fold increase over baseline (−); +/−: as a range from <1.2-fold increase over baseline (−) up to >6-fold increase over baseline (+++); as a range from <1.2-fold increase over baseline (−) up to >6-fold increase over baseline (+++); as a range from <1.2-fold increase over baseline (−) up to >6-fold increase over baseline (+++); >6-fold increase over baseline (+++)
- recorded conditions: Kv7.2/Kv7.3 co-expressing HEK cells, compound 3 μM, steady-state current at end of 2 s pulse to −30 mV
result type: Kv7.2/7.3 Activity: increase in current over baseline

- molecule: "Cc1cc(-n2c(NC(=O)[C@H]3CC3(C)C)nc3ccc(C(F)(F)F)cc32)on1 [Example 45]"
  result: "+"
- molecule: "O=C(CC(O)(C1CC1)C1CC1)Nc1nc2ccc(C(F)(F)F)cc2n1C1CCC1 [Example 98]"
  result: "+"
- molecule: "CC(C)[C@H](C)C(=O)Nc1nc2ccc(C#N)cc2n1C1CCC1 [Example 6]"
  result: "+"
- molecule: "O=C(CC1(O)CCC1)Nc1nc2ccc(C(F)(F)F)cc2n1-c1ccc(OC(F)(F)F)c(F)c1 [Example 145]"
  result: "++"
- molecule: "CC(C)(O)CC(=O)Nc1nc2cc(C(F)(F)F)cc(F)c2n1C1CCC1 [Example 133]"
  result: "+"
- molecule: "C[C@](O)(CC(=O)Nc1nc2ccc(C(F)(F)F)cc2n1C1CCC1)c1ccccc1 [Example 88]"
  result: "+"
- molecule: "CC(O)(CC(=O)Nc1nc2ccc(C#N)cc2n1C1CCC1)C1CCCC1 (centres unmarked) [Example 80]"
  result: "+"

Measured Kv7.2/7.3 Activity: increase in current over baseline, CC(C)(C)CC(=O)Nc1nc2ccc(Br)cc2n1C1CCC1 [Example 63] : ++

* * *

- experimental target: Kv7.2/7.3 (Homo sapiens, UniProt O43525+O43526)
- Construct: host or cells: HEK cells, tetracycline-inducible expression
- assay explanation: Kv7.2/7.3 activation assay, QPatch planar patch-clamp, single concentration screen
- Type: cell-based
- Set-up: key: <1.2-fold increase over baseline (−); +/−: as a range from <1.2-fold increase over baseline (−) up to >6-fold increase over baseline (+++); as a range from <1.2-fold increase over baseline (−) up to >6-fold increase over baseline (+++); as a range from <1.2-fold increase over baseline (−) up to >6-fold increase over baseline (+++); >6-fold increase over baseline (+++)
- recorded conditions: Kv7.2/Kv7.3 co-expressing HEK cells, compound 3 μM, steady-state current at end of 2 s pulse to −30 mV
result type: Kv7.2/7.3 Activity: increase in current over baseline

Reference set (7 entries):
- compound: "Cc1cc2nc(NC(=O)C[C@](C)(O)c3ccccc3)n(C(C)(C)C)c2cc1C#N"
  result: "+/−"
- compound: "Cc1cc2nc(NC(=O)C[C@@](C)(O)c3ccccc3)n(C3CCC3)c2cc1C#N"
  result: "+/−"
- compound: "C[C@](O)(C(=O)Nc1nc2ccc(C(F)(F)F)cc2n1C1CCC1)C(F)(F)F"
  result: "+/−"
- compound: "CC(C(=O)Nc1nc2ccc(C#N)cc2n1C1CCC1)C(C)(C)C (stereo not drawn)"
  result: "+"
- compound: "C[C@](O)(CC(=O)Nc1nc2ccc(Cl)cc2n1C1CCC1)c1ccc(F)cc1"
  result: "+"
- compound: "CC(O)(CC(=O)Nc1nc2ccc(C#N)cc2n1C1CCC1)C1CC1 (stereo not drawn)"
  result: "+/−"
- compound: "CC(C)[C@@H](C)C(=O)Nc1nc2ccc(C#N)cc2n1C1CCC1"
  result: "+/−"

For `CC(C)(O)CC(=O)Nc1nc2ccc(C(F)(F)F)cc2n1-c1ccc(OC(F)(F)F)c(F)c1` the compound record lists Kv7.2/7.3 Activity: increase in current over baseline as +
